Test system: RXF 393 renal
experiment.description: NCI tumour cell line growth inhibition, 48 h
Tick Criterion met if TGI is 3 µM or greater. Tick Criterion not met if TGI is less than 3 µM.

# count of solved cases: 6
# compound, answer.label
rows = [
    ("CC1(C)OC2COC(c3[nH]nc4c(=O)[nH]c(=O)[nH]c34)C2O1 (centres undefined)", "Criterion met"),
    ("CCOc1ncnc2ccc(Cl)c(I)c12", "Criterion met"),
    ("C=C1C(=O)O[C@H]2[C@H]1CC/C(Cn1cc(-c3ccsc3)nn1)=C\\CC[C@@]1(C)O[C@@H]21", "Criterion not met"),
    ("O=C(Nc1ccc(-n2ccc3c(NC(=O)c4ccccc4)nccc32)cc1)c1ccc(N2CCOCC2)c(C(F)(F)F)c1", "Criterion not met"),
    ("O=C(COC(=O)c1cccc2c(=O)c3ccccc3[nH]c12)Nc1ccc(S(=O)(=O)Nc2ncccn2)cc1", "Criterion met"),
    ("C(/C=C/Nc1ccc(-c2ccccc2)cc1)=Nc1ccc(-c2ccccc2)cc1", "Criterion met"),
]

Request: Check this compound for TGI at or above 3 µM: Cc1c(C#N)c(N)n(C2OC(CO)C(O)C(O)C2O)c(=S)c1C#N (centres undefined)
Response: Criterion met

Request: Entry to check: "CC(C)C[C@H](NC(=O)CCc1cccc2ccccc12)B(O)O"
Response: Criterion not met

Request: Subsequent entry: C=C(C)[C@@H]1CC[C@]2(CN)CC[C@]3(C)[C@H](CC[C@@H]4[C@@]5(C)CCC(N)[C@@](C)(CO)[C@@H]5CC[C@]43C)[C@@H]12 (some centres undefined)
Response: Criterion not met

###

System: RXF 393 renal
experiment.description: NCI tumour cell line growth inhibition, 48 h
readout.name: GI50

# molecule, GI50
measured = [
    ("CCCCCCCCCCCCC(NC(C)=O)(C(=O)OCC)C(=O)OCC", "13.7 µM"),
]

Request: Request body: readout GI50, system RXF 393 renal, query "Cc1cc(C)c(O)c(CNCCCNCc2cc(C)cc(C)c2O)c1" . Return the value.
Response: 1.93 µM

Request: Again, but for CCCCCCC(O)C(O)CCC(O)C1CCC(CCCCC(O)CC2=CC(C)OC2=O)O1 (stereo not given)
Response: 22.9 µM

Request: Next molecule: "COc1cc2c(cc1OC)-c1ncc3cc(OC)c(OC)c(OC)c3c1C2"
Response: 23.2 µM

Request: Now the molecule "COc1c(Cl)[c]([Hg][O]C(C)=O)c(NCC(C)=O)c(OC)[c]1[Hg][O]C(C)=O"
Response: 14.4 µM

###

Tested on: MALME-3M melanoma
experiment.description: NCI tumour cell line growth inhibition, 48 h
Here, each record is paired with measured TGI data.

Answered cases to consult:
# compound, TGI
data = [
    ("S=C(S)N1CCN(c2ccccc2)CC1", "> 100 µM"),
    ("O=C1CN(c2ccccc2)C(=O)CN1CCN1CC(=O)N(c2ccccc2)CC1=O", "> 100 µM"),
    ("CCC(C)(C)NS(=O)(=O)c1ccccc1", "> 100 µM"),
    ("N#CC(C(=O)O)C(c1c(Cl)cccc1Cl)C(C#N)C(=O)O (stereo unspecified)", "> 100 µM"),
]

Request: Lab note: need TGI for O=C(O)CNC(=O)C1NC(C(F)(F)F)(C(F)(F)F)OC1(C(F)(F)F)C(F)(F)F (stereo unspecified) on MALME-3M melanoma, anyone have it?
Response: > 100 µM

Request: Repeat with "CCN(CC)CCC(=O)N1C/C(=C/c2ccccc2)C(=O)/C(=C\c2ccccc2)C1"
Response: 7.36 µM

These entries and their values trace back to PubChem BioAssay (NCI).
